In this section, each of the molecules is paired with its reported Relative activity (%).
Test system: L-gulono-gamma-lactone dehydrogenase (GLDH)
Measurement notes: Effect of metal ions on GLDH enzyme activity
Type: biochemical, Gluconobacter oxydans DSM 4025
Condition label: metal 0.19 mM
Quantity: Relative activity (%)

Molecule | Quantity | Reported measurement
O.O.O.O.O.O.O.O=S(=O)([O-])[O-].[Zn+2] [ZnSO4.7H2 O] | Relative activity (%) | 88
O.O.O.O.O.O.O.O=S(=O)([O-])[O-].[Mg+2] [MgSO4.7H2 O] | Relative activity (%) | 92
[Cl-].[Cl-].[Zn+2] [ZnCl2] | Relative activity (%) | 88
O.O.[Na+].[Na+].[O]=[Mo](=[O])([O-])[O-] [Na2 MoO4.2H2 O] | Relative activity (%) | 104
O.O.O.O.O.O.O.O=S(=O)([O-])[O-].[Ni+2] [NiSO4.7H2 O] | Relative activity (%) | 96
O=S(=O)([O-])[O-].[Cu+2] [CuSO4] | Relative activity (%) | 92
O.O.O.O=[N+]([O-])[O-].O=[N+]([O-])[O-].[Cu+2] [Cu(NO3)2.3H2 O] | Relative activity (%) | 88
O.O.O.O.O.O.O.O=S(=O)([O-])[O-].[Co+2] [CoSO4.7H2 O] | Relative activity (%) | 96
